Data origin, for the record: ChEMBL document CHEMBL1121626

# System: Oryctolagus cuniculus
# method.summary: Compound was evaluated for anesthetic dose (pAD = log 1/AD; AD = anesthetic dose)
value.type: pAD
Answers are plain numbers.

Below, each entry is followed by its recorded pAD result.
CCCN(CCC)CC(=O)NC1CCc2ccccc21.Cl (stereo not given)    1.89
CCCCN(CCCC)CC(=O)NCc1ccccc1.Cl    1.8
O=C(CN1CCCC1)NCc1ccccc1    0.71

For the 8 compounds below, give their pAD values.
1. CCN(CC)CC(=O)NC1c2ccccc2CCc2ccccc21.Cl
2. CCCN(CCC)CC(=O)NC1c2ccccc2-c2ccccc21.Cl
3. CCN(CC)CC(=O)NC1CC(c2ccccc2)c2ccccc21.Cl (stereo not given)
4. Cl.O=C(CN1CCOCC1)NCc1ccccc1
5. CCN(CC)CC(=O)NC(c1ccccc1)c1ccccc1.Cl
6. CCCCCN(CCCCC)CC(=O)NCc1ccccc1.Cl
7. CCN(CC)CC(=O)NC1CCc2ccccc21.Cl (stereo not given)
8. Cl.O=C(CN1CCCCC1)NCc1ccccc1

1: 1.25; 2: 1.68; 3: 1.55; 4: 0.73; 5: 1.82; 6: 1.53; 7: 1.45; 8: 0.73
